Entries and their measured TGI follow.
tested on: COLO 205 colon; assay: NCI tumour cell line growth inhibition, 48 h

Illustrative cases are given below, each with its answer.
Nc1nc(N)c(-c2ccccc2)c(CCC(=O)Nc2ccc(Cl)cc2)n1; > 100 µM
O=[N+]([O-])c1ccc2ncccc2c1CCc1c([N+](=O)[O-])ccc2ncccc12; > 100 µM

Attention now shifts to the item below.
What value of measured TGI is listed for CCOP(=O)(OCC)C(Nc1ccc(F)cc1)c1ccccc1 (stereo not drawn) ?
> 100 µM

----------
test system: SK-MEL-5 melanoma; experiment: NCI tumour cell line growth inhibition, 48 h
Documented TGI across a set of compounds

Consider the reported TGI for these compounds:
O=C1C[C@H](c2ccc(O)c(O)c2)Oc2cc(O)cc(O)c21; > 100 µM
CC(/C=N/NC1=NCCCN1)=N\NC1=NCCCN1; > 100 µM
CN(C)CCNc1nc(-c2cccs2)cc(-c2cccs2)n1; 29.6 µM

Please examine the following record next.
Request the reported TGI associated with N=C(N)SCCc1ccccn1
> 100 µM

----------
system: RPMI-8226 leukemia; test: NCI tumour cell line growth inhibition, 48 h; in the data active = GI50 below about 0.43 µM; inactive = the rest
Output constraint: value belongs to active, inactive

I'd appreciate the recorded outcome for O=c1c2c3c(sc2n2c(-c4ccc(Br)cc4)nnc2n1Cc1ccccc1)CCCC3 from this test.
inactive

----------
tested on: COLO 205 colon; assay: NCI tumour cell line growth inhibition, 48 h
TGI values, listed per item

Solved cases below.
Cc1ccc(NC(=O)CCC(=O)C(C#N)c2ccccc2)cc1C (configuration not stated); > 100 µM
CC(C)(C)C(=O)OCc1nc2cc3c(cc2c(=O)[nH]1)CCC3=O; > 100 µM

Data request, read-out TGI, for CN(CCO)/N=N/c1[nH]ncc1C(N)=O
> 100 µM

Which measured TGI value corresponds to Brc1cccc[n+]1-c1ccc2cc(-[n+]3ccccc3Br)ccc2c1 ?
> 100 µM

Record request: TGI value, item O=S(=O)(O)ONC1=NCCN1
> 100 µM

Which TGI reading was recorded for the compound NCCCC[C@H](N)C(=O)Nc1ccc(-c2nc3ccccc3s2)cc1Cl ?
17.9 µM

// returns reported TGI for input O=C1c2cc([N+](=O)[O-])sc2C(=O)c2ccsc21
1.66 µM

Suppose we examine the compound O=C1OC(=O)C2C1C(c1ccccc1[N+](=O)[O-])C=C(c1ccco1)N2c1ccncc1 (configuration not stated) ; what TGI value has been reported?
23.9 µM

If you can, please state the reported TGI value of OC(CN1CCCCC1)c1ccc(/C=C/c2ccc(Cl)cc2)cc1 (configuration not stated) .
36 µM

Give its TGI value. Item: C#CCN(C)C(=O)N(CC#C)N=O
> 100 µM

Reported TGI, compound Cc1ccc(S(=O)OC23CC4CC(CC(C4)C2)C3)cc1 (configuration not stated) : ____
> 100 µM

Quick one: TGI for CC1=C(C(=O)Nc2ccccc2)C(c2ccc(C(C)C)cc2)C(C(=O)Nc2ccccc2)=C(C)N1 ?
28.6 µM

Which TGI value is on record for C1C[OH+]CC[OH+]CC[OH+]CC[OH+]CC[OH+]CC[OH+]1.[Cl-].[Nb+5] ?
> 100 µM

Look up TGI for this compound: Nc1c(C(=O)Nc2cccc(Br)c2)sc2nc3c(cc12)C(O)CCC3 (configuration not stated)
> 32 µM

Recorded TGI for COc1ccccc1NS(=O)(=O)c1ccc2ncn(NS(=O)(=O)c3ccc(Cl)cc3)c(=O)c2c1 , please?
> 100 µM

Which TGI is listed for O=C(CC(=O)c1ccccc1)c1ccccc1 ?
> 100 µM

Endpoint output: TGI of COC[C@@H](Cc1ccc(OC)c(OC)c1)[C@@H](COC)Cc1ccc(OC)c(OC)c1 . Value?
> 100 µM

Name the reported TGI value associated with the compound COc1cc(-c2nn(-c3ccc(NC(=O)c4cc(Cl)cc(Cl)c4)cc3)cc2-c2ccncc2)ccc1Cl
> 100 µM

Record request: TGI value, item CCN1CCNc2c3cc(OC)ccc3nc3c([N+](=O)[O-])ccc1c23
5.39 µM
